- system: T1, Mouse IL-11 (mouse, UniProt P47873 22-199, limits assumed)
- T1 construct: also called murine IL-11; recombinant murine IL-11
- T1 sequence (looked up): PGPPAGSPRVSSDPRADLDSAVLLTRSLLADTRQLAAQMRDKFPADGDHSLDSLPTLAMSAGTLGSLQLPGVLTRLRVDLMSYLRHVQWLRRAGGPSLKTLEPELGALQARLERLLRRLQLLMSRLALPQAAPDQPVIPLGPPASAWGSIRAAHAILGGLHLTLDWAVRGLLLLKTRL
- methodDescription: ELISA
readoutKind: mIL11 - average signal
Just the number.

YU100-E10 (antibody) QVQLVQSGGGVVQPGRSLRLSCAASGFTFSSYGMHWVRQAPGKGLEWVAVISYDGSNKYYADSVKGRFTISRDNSKNTLYLQMNSLRAEDTAVYYCAKIGATDPLDYWGQGTLVTVSSGSASAPKLEEGEFSEARVQSALTQPRSVSGSPGQSVTISCTGTSSDVGGYNYVSWYQQHPGKAPKLMIFDVSQRPSGVPDRFSASKSGNTASLTISGLQAEDEADYYCCSYAGSYTWVFGGGTKLTVL = 0.297

Now for the binder whose mIL11 - average signal we want.
Lab note: measured mIL11 - average signal of YU112-B06 (antibody) QVQLVESGGGVVQPGRSLRLSCAASGFTFSSYGMHWVRQAPGKGLEWVAVISYDGSNKYYADSVKGRFTISRDNSKNTLYLQMNSLRAEDTAVYYCAKIGATDPLDYWGQGTLVTVSSGSASAPKLEEGEFSEARVQSALTQPASVSGSPGQSITISCTGTSSDVGGYNYVSWYQQHPGKAPKLMIYDVSNRPSGVSNRFSGSKSGNTASLTIFGLQAEDEADYYCSSYTSSSSWVFGGGTKLTVL was 0.622

meta.source: patent US20210230266A1
